biological target: Sodium-dependent dopamine transporter (Homo sapiens); experiment: Inhibition of [3H]-5-dopamine reuptake in human DAT expressed in HEK293 cells by liquid scintillation counting method
Sequence (Q01959 whole entry): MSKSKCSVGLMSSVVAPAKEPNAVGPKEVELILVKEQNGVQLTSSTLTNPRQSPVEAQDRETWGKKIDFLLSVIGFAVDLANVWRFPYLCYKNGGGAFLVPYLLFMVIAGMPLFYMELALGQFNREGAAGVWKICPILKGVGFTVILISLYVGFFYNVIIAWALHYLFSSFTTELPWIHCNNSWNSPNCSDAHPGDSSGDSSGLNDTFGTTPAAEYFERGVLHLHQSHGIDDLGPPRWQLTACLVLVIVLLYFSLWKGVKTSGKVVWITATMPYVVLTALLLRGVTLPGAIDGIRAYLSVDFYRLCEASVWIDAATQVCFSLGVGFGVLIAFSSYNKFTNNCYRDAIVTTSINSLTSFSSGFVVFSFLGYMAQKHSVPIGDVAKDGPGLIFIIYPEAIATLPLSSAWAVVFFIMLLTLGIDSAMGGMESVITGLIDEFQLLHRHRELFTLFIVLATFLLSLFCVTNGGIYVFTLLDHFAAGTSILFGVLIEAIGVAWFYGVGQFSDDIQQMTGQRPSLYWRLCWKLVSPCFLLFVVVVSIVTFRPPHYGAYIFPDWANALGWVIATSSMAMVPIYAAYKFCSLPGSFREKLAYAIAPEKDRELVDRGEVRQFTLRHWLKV
Assay endpoint: IC50 (µM)

Record excerpt, results attached:
smiles_entry=Clc1ccc(N2CCN(CCCn3nnnc3C(c3ccccc3)c3ccccc3)CC2)cc1Cl reported_value=4.2
smiles_entry=Cc1cccc(C)c1N1CCN(CCCn2nnnc2C(c2ccccc2)c2ccccc2)CC1 reported_value=3.72
smiles_entry=c1ccc(C(c2ccccc2)c2nnnn2CCCN2CCN(c3ncccn3)CC2)cc1 reported_value=1.14
smiles_entry=c1ccc(C(c2ccccc2)c2nnnn2CCCN2CCN(c3ccccn3)CC2)cc1 reported_value=1.43
smiles_entry=Fc1ccc(C(F)(F)F)cc1N1CCN(CCCn2nnnc2C(c2ccccc2)c2ccccc2)CC1 reported_value=2.25
smiles_entry=Fc1cc(Cl)ccc1N1CCN(CCCn2nnnc2C(c2ccccc2)c2ccccc2)CC1 reported_value=2.25
smiles_entry=Clc1cccc(N2CCN(CCCn3nnnc3C(c3ccccc3)c3ccccc3)CC2)c1 reported_value=4.74
smiles_entry=Fc1ccc(N2CCN(CCCn3nnnc3C(c3ccccc3)c3ccccc3)CC2)c(F)c1 reported_value=2.9
smiles_entry=Clc1cccc(N2CCN(CCCn3nnnc3C(c3ccccc3)c3ccccc3)CC2)c1Cl reported_value=3.04
smiles_entry=Cc1ccc(N2CCN(CCCn3nnnc3C(c3ccccc3)c3ccccc3)CC2)cc1 reported_value=1.42

I: c1ccc(C(c2ccccc2)c2nnnn2CCCN2CCN(c3ccccc3)CC2)cc1
II: FC(F)(F)c1cccc(N2CCN(CCCn3nnnc3C(c3ccccc3)c3ccccc3)CC2)c1
III: Clc1ccc(N2CCN(CCCn3nnnc3C(c3ccccc3)c3ccccc3)CC2)c(Cl)c1
IV: COc1ccccc1N1CCN(CCCn2nnnc2C(c2ccccc2)c2ccccc2)CC1
Enquiry: Order the entries by their reported IC50, beginning at the minimum. Arrange the labels as the request states and list them.
Return: IV, I, III, II
(IV: 1.04 µM, I: 1.64 µM, III: 3.59 µM, II: 5.58 µM)

Cited source for all entries: ChEMBL document CHEMBL4431391
